- TEST: 1-octanol/aqueous buffer distribution coefficient, log D of compound at pH 7.4
- Type: physicochemical
- TEST SETTINGS: 1-octanol/aqueous buffer, read-out: logD
ENDPOINT: logD

smiles_structure=N#Cc1ccc2[nH]c(C(=O)N[C@H]3Cc4ccccc4[C@@H]3NC(=O)c3cnccc3N)cc2c1 endpoint=logD endpoint_result=2.1
smiles_structure=CN1CCO[C@H](C(=O)N[C@H]2c3ccccc3C[C@@H]2NC(=O)c2ccc3c(ccn3C)c2)C1 endpoint=logD endpoint_result=2.6
smiles_structure=CN(C)CCNC(=O)[C@@H]1c2ccccc2C[C@H]1NC(=O)c1cc2ccccc2[nH]1 endpoint=logD endpoint_result=2.3
smiles_structure=CN1CCCO[C@@H](C(=O)N[C@H]2c3ccccc3C[C@@H]2NC(=O)c2ccc3c(ccn3C)c2)C1 endpoint=logD endpoint_result=2.3
smiles_structure=CN1CCC[C@H](C(=O)N[C@H]2c3ccccc3C[C@@H]2NC(=O)c2ccc3c(ccn3C)c2)C1 endpoint=logD endpoint_result=2.1
smiles_structure=Cn1ccc2c(F)c(C(=O)N[C@H]3Cc4ccccc4[C@@H]3NC(=O)c3cnccc3N)ccc21 endpoint=logD endpoint_result=2.9
smiles_structure=CN1CCCO[C@H](C(=O)N[C@H]2c3ccccc3C[C@@H]2NC(=O)c2ccc3c(ccn3C)c2)C1 endpoint=logD endpoint_result=2.3
smiles_structure=Cc1ccc2[nH]c(C(=O)N[C@H]3Cc4ccccc4[C@H]3C(=O)NCCN(C)C)cc2c1 endpoint=logD endpoint_result=2.3

###

- TEST: Intrinsic clearance in dog liver microsomes
- Assay type: ADME, Canis lupus familiaris, microsome
- TEST SETTINGS: read-out: CLH
ENDPOINT: microsomal CLint (µL/min/mg)
Answer in µL/min/mg, number only, no unit symbol.

Value lookup for microsomal CLint; key = CN(C)CCNC(=O)[C@H]1c2ccccc2C[C@@H]1NC(=O)c1cc2ccccc2[nH]1
9

###

- TEST: Oral bioavailability in Beagle dog at 2 mg/kg after 24 hrs by LC-MS/MS analysis
- Format: ADME, organism-based, Canis lupus familiaris
- TEST SETTINGS: in vivo
ENDPOINT: bioavailability (%)
Quick note: give the figure in %, leave out the unit.

Any idea what bioavailability was measured for Cc1ccc2[nH]c(C(=O)N[C@H]3Cc4ccccc4[C@@H]3NC(=O)[C@@H]3CN(C)CCO3)cc2c1 ?
39

###

- TEST: Apparent permeability across basolateral to apical side in human Caco2 cells at pH 7.4
- Type: ADME, cell-based
- TEST SETTINGS: Caco-2, pH 7.4
ENDPOINT: Papp B→A (×10⁻⁶ cm/s)

[A] Cc1ccc2[nH]c(C(=O)N[C@H]3Cc4ccccc4[C@@H]3NC(=O)[C@@H]3CN(C)CCO3)cc2c1
[B] CN(C)CCNC(=O)[C@H]1c2ccccc2C[C@@H]1NC(=O)c1cc2ccccc2[nH]1
Which shows the larger Papp B→A value: A or B ? Choose, then provide that item's label.
B

###

- STUDY SYSTEM: hERG (KCNH2) (Homo sapiens, UniProt Q12809)
- TEST: Inhibition of human ERG expressed in CHO cells at 11 uM relative to control
- Type: cell-based
- TEST SETTINGS: CHO cells that express hERG
# maps each entry to its inhibition at 11 µM
Just the number in %, nothing appended.

smiles_structure=Cc1ccc2[nH]c(C(=O)N[C@H]3Cc4ccccc4[C@@H]3C(=O)N[C@H]3CCCN(C)C3)cc2c1 endpoint_result=30
smiles_structure=Cc1ccc2[nH]c(C(=O)N[C@H]3Cc4ccccc4[C@H]3C(=O)NCCN(C)C)cc2c1 endpoint_result=42

Next compound, please.
Field request: inhibition at 11 µM | item: Cc1ccc2[nH]c(C(=O)N[C@H]3Cc4ccccc4[C@@H]3C(=O)N(C)CCN(C)C)cc2c1
50

###

- TEST: Ratio of unbound drug level in brain to plasma in Beagle dog at 1 mg/kg, iv or 2 mg/kg, po after 24 hrs by LC-MS/MS analysis
- Assay type: ADME, organism-based, Canis lupus familiaris
- TEST SETTINGS: read-out: K(p,uu,brain)
ENDPOINT: Kp uu at 24 h
Output: the number by itself.

For Cc1ccc2[nH]c(C(=O)N[C@H]3Cc4ccccc4[C@@H]3NC(=O)[C@@H]3CN(C)CCO3)cc2c1 , what is its reported Kp uu at 24 h?
0.292

###

- TEST: Half life in Beagle dog at 2 mg/kg, po after 24 hrs by LC-MS/MS analysis
- Assay type: ADME, organism-based, Canis lupus familiaris
- TEST SETTINGS: in vivo
ENDPOINT: half-life (h)
I only need the number, in h, no unit after it.

Requested field: half-life. Item: Cc1ccc2[nH]c(C(=O)N[C@H]3Cc4ccccc4[C@@H]3NC(=O)[C@@H]3CN(C)CCO3)cc2c1
1.2

###

- TEST: Intrinsic clearance in human liver microsomes
- Assay type: ADME, microsome
- TEST SETTINGS: read-out: CLH
ENDPOINT: microsomal CLint (µL/min/mg)

smiles_structure=Cc1ccc2[nH]c(C(=O)N[C@H]3Cc4ccccc4[C@@H]3C(=O)N[C@H]3CCCN(C)C3)cc2c1 endpoint="microsomal CLint" endpoint_result=132

[a] Cc1ccc2[nH]c(C(=O)N[C@H]3Cc4ccccc4[C@@H]3C(=O)N(C)CCN(C)C)cc2c1
[b] CN(C)CCNC(=O)[C@@H]1c2ccccc2C[C@H]1NC(=O)c1cc2ccccc2[nH]1
Sorting by microsomal CLint in descending order, would a or b appear first? Answer = label.
a

###

- STUDY SYSTEM: Voltage-gated inwardly rectifying potassium channel KCNH2 (Homo sapiens, UniProt Q12809)
- Sequence (Q12809 whole entry): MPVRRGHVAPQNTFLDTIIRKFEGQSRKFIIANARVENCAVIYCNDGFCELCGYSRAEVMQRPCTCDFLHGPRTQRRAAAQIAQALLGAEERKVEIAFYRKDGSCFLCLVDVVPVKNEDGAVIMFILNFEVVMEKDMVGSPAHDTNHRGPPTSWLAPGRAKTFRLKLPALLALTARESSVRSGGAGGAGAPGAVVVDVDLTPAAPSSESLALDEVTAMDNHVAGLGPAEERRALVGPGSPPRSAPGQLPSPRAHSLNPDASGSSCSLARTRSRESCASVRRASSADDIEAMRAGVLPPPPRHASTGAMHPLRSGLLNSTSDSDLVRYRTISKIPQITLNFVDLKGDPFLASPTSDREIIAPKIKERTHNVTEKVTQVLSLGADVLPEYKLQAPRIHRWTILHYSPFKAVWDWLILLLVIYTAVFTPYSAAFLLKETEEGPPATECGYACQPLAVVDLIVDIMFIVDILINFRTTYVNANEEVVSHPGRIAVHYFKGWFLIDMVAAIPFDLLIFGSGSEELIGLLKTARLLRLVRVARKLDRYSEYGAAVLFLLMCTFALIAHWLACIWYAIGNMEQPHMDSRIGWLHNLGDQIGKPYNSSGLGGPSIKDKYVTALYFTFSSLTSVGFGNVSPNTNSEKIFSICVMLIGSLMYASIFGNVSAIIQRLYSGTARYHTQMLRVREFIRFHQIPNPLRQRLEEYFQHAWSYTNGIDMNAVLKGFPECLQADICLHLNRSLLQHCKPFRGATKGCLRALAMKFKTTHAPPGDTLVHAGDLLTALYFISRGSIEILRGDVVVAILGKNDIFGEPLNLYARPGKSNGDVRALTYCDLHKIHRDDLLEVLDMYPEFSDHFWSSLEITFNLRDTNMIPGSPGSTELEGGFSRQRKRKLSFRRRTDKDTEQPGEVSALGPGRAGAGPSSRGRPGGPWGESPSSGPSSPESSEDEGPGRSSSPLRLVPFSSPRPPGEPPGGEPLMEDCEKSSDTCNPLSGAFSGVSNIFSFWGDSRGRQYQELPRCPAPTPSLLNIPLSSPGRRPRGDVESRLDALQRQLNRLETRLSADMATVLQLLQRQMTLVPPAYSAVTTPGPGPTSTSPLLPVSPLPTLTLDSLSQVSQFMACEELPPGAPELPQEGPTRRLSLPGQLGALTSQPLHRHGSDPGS
- TEST: Inhibition of human ERG expressed in CHO cells
ENDPOINT: IC50 (µM)
Write the number in µM without appending the unit.

Example results:
smiles_structure=CN(C)CCC(=O)N[C@H]1c2ccccc2C[C@@H]1NC(=O)c1cc2cc(F)c(F)cc2[nH]1 endpoint_result=3.98
smiles_structure=COCCNCCC(=O)N[C@H]1c2ccccc2C[C@@H]1NC(=O)c1cc2ccccc2n1C endpoint_result=1.58
smiles_structure=Cc1ccc2[nH]c(C(=O)N[C@H]3Cc4ccccc4[C@@H]3NC(=O)CCN(C)C)cc2c1 endpoint_result=7.94
smiles_structure=CN(C)CCNC(=O)[C@@H]1c2ccccc2C[C@H]1NC(=O)c1cc2ccccc2[nH]1 endpoint_result=12.6
smiles_structure=Cc1ccc2[nH]c(C(=O)N[C@@H]3Cc4ccccc4[C@H]3NC(=O)CCN(C)C)cc2c1 endpoint_result=2.51

Give the measured IC50 of Cc1ccc2[nH]c(C(=O)N[C@H]3Cc4ccccc4[C@H]3NC(=O)CCN(C)C)cc2c1 .
25.1

What do you have for CN(C)CCNC(=O)[C@H]1c2ccccc2C[C@@H]1NC(=O)c1cc2ccccc2[nH]1 ?
31.6

What about Cc1ccc2[nH]c(C(=O)N[C@@H]3Cc4ccccc4[C@@H]3NC(=O)CCN(C)C)cc2c1 ?
6.31

###

- TEST: Drug elimination in Beagle dog urine by LC-MS/MS analysis
- Format: ADME, Canis lupus familiaris
- TEST SETTINGS: read-out: Drug excretion
ENDPOINT: dose excreted (%)
Field: numeric (%). Do not append units.

Find the recorded dose excreted belonging to CN(C)CCNC(=O)[C@H]1c2ccccc2C[C@@H]1NC(=O)c1cc2ccccc2[nH]1 and report it.
2

###

- TEST: Apparent intrinsic permeability across apical to basolateral side in human Caco2 cells at pH 6.5
- Format: ADME, cell-based
- TEST SETTINGS: Caco-2, pH 6.5
ENDPOINT: Papp A→B (×10⁻⁶ cm/s)
Supply the numeric figure in ×10⁻⁶ cm/s, leaving out any unit text.

Fill in the blank: the reported Papp A→B of Cc1ccc2[nH]c(C(=O)N[C@H]3Cc4ccccc4[C@@H]3NC(=O)[C@@H]3CN(C)CCO3)cc2c1 is ____.
44.4

###

- TEST: 1-octanol/aqueous buffer distribution coefficient, log D of compound at pH 7.4
- Assay type: physicochemical
- TEST SETTINGS: 1-octanol/aqueous buffer, read-out: logD
ENDPOINT: logD

Please review the following examples before continuing.
molecule=Cc1ccc2[nH]c(C(=O)N[C@H]3Cc4ccccc4[C@@H]3NC(=O)c3cnccc3N)cc2c1 endpoint_result=3
molecule="CN1CCCCC(C(=O)N[C@H]2c3ccccc3C[C@@H]2NC(=O)c2ccc3c(ccn3C)c2)C1 (stereo in doubt; 27)" endpoint_result=2.1
molecule=CN1CC[C@H](C(=O)N[C@H]2c3ccccc3C[C@@H]2NC(=O)c2ccc3c(ccn3C)c2)C1 endpoint_result=1.4

[1] Cn1ccc2cc(C(=O)N[C@H]3Cc4ccccc4[C@@H]3NC(=O)[C@@H]3CNCCO3)ccc21
[2] Cc1ccc2[nH]c(C(=O)N[C@H]3Cc4ccccc4[C@@H]3NC(=O)[C@@H]3CN(C)CCO3)cc2c1
Please indicate which has the smaller reported logD: 1 , or 2 . Field: selected label. Fill in the label of the entry you choose.
1
(1: 1.8, 2: 3.7)
